Data provenance: ChEMBL document CHEMBL1143477

# assay.procedure: Dissociation constant for binding of camptothecin to the synthetic peptide NSSQSARR by using quartz-crystal microbalance (QCM) method after compound dissolved in 10 % DMSO at 25 degree C
pKd: −log10 of the molar value.
experimental.readout: pKd

input.smiles	measurement
CC[C@@]1(O)C(=O)OCc2c1cc1n(c2=O)Cc2cc3ccccc3nc2-1	7.03

----------
# assay.procedure: Dissociation constant for binding of camptothecin to the synthetic peptide NSSQSARR by surface plasmon resonance (SPR) method after compound dissolved in 10 % DMSO at 25 degree C
pKd: −log10 of the molar value.
experimental.readout: pKd

compound	experimental.readout	measurement
CC[C@@]1(O)C(=O)OCc2c1cc1n(c2=O)Cc2cc3ccccc3nc2-1 [CAMPTOTHECIN]	pKd	6.95
